# pIC50 per entry
Biological target: BRD4 BD2 (Homo sapiens)
Construct: made in house
Assay: AlphaScreen binding assay, BRD4 Bromodomain 2
pIC50: −log10 of the molar value.

// worked examples, pIC50 included
[[record]]
smiles_record = "CC(=O)N1c2ccc(-c3ccc(S(C)(=O)=O)cc3)cc2N(C(=O)Oc2ccccn2)C[C@@H]1C"
target_system = "BRD4 BD2 (Homo sapiens)"
quantity_name = "pIC50"
result = "6.30 to 7.30"

[[record]]
smiles_record = "CC(=O)N1c2ccc(-c3ccc(C4(O)COC4)cc3)cc2N(C(=O)c2ccco2)C[C@@H]1C"
target_system = "BRD4 BD2 (Homo sapiens)"
quantity_name = "pIC50"
result = "> 7.30"

[[record]]
smiles_record = "CC(=O)N1c2ccc(-c3cnn(C(C)C)c3)cc2N(C(=O)C2CC2)C[C@@H]1C"
target_system = "BRD4 BD2 (Homo sapiens)"
quantity_name = "pIC50"
result = "6.30 to 7.30"

[[record]]
smiles_record = "CC(=O)N1c2ccc(-c3ccc(C(=O)N(C)CC(=O)N(C)C)cc3)cc2N(C(=O)OC(C)C)C[C@@H]1C"
target_system = "BRD4 BD2 (Homo sapiens)"
quantity_name = "pIC50"
result = "6.30 to 7.30"

[[record]]
smiles_record = "CCS(=O)(=O)c1ccc(-c2ccc3c(c2)N(C(=O)C2CCC2)C[C@H](C)N3C(C)=O)cc1"
target_system = "BRD4 BD2 (Homo sapiens)"
quantity_name = "pIC50"
result = "6.30 to 7.30"

[[record]]
smiles_record = "CC(C)OC(=O)N1C[C@H](C)N(C(=O)C2CC2)c2ccc(-c3cnn(CCN4CCCS4(=O)=O)c3)cc21"
target_system = "BRD4 BD2 (Homo sapiens)"
quantity_name = "pIC50"
result = "6.30 to 7.30"

[[record]]
smiles_record = "COCCn1cc(-c2ccc3c(c2)N(C(=O)c2ccco2)C[C@H](C)N3C(C)=O)cn1"
target_system = "BRD4 BD2 (Homo sapiens)"
quantity_name = "pIC50"
result = "> 7.30"

[[record]]
smiles_record = "CC(=O)N1c2ccc(-c3cnn(C4CC4)c3)cc2N(C(=O)Oc2cccc(Cl)c2)C[C@@H]1C"
target_system = "BRD4 BD2 (Homo sapiens)"
quantity_name = "pIC50"
result = "6.30 to 7.30"


Give pIC50 for the following compound: CC(=O)N1c2ccc(-c3ccc(S(C)(=O)=O)cc3)cc2N(C(=O)c2ncoc2C)C[C@@H]1C
< 6.30

Give pIC50 for the following compound: CC(=O)N1c2ccc(-c3cnn(C4COC4)c3)cc2N(C(=O)Oc2ccccc2)C[C@@H]1C
> 7.30

Give pIC50 for the following compound: CC(=O)N1c2ccc(-c3ccc(NS(=O)(=O)c4ccc(C)cc4)cc3)cc2N(C(=O)c2ccco2)C[C@@H]1C
> 7.30
